- TARGET_UNDER_TEST: Neurogenic locus notch homolog protein 3 (Homo sapiens)
- TEST_METHOD_NOTES: NOTCH3 binders on small-molecule microarray, primary screen, biochemical, 635/667 nm fluorescence (AID 1096)
- APPLIED_CONDITIONS: NOTCH3 binding, 635 nm fluorescence, higher = more signal
Below is a list of entries, each paired with its recorded composite z-score value.

Solved cases below.
COMPOUND: COc1ccc(C(O)C2C=CC3C(=O)N(Cc4ccccc4)C(=O)C3N2n2cnnc2)c2ccccc12 (configuration not stated)
READOUT_KIND: composite z-score
MEASURED_VALUE: 0.556

COMPOUND: CC(C)(C)OC(=O)CC[C@@]1(C(=O)O)N=C(c2ccc(OCCCO)cc2)O[C@@H]1c1ccccc1
READOUT_KIND: composite z-score
MEASURED_VALUE: 0.183

COMPOUND: O=C1O[C@@H](c2ccccc2)[C@@H](c2ccccc2)N2[C@@H](c3ccccc3OCCO)[C@]3(C(=O)Nc4ccccc43)[C@@H](C(=O)NC[C@H](O)c3ccccc3)[C@H]12
READOUT_KIND: composite z-score
MEASURED_VALUE: -0.359

COMPOUND: CC(C)C(=C=CC[C@@H](O)c1ccccc1OCCO)C[C@@H](O)COCc1ccccc1
READOUT_KIND: composite z-score
MEASURED_VALUE: 0.388

COMPOUND: COc1ccc([Si](C)(C)[C@@H]2[C@@H](CC(=O)N3CCC[C@H]3CO)O[C@]3(C(=O)N(Cc4ccc(N5C(=O)c6cccc7cccc5c67)cc4)c4ccccc43)[C@H]2C)cc1
READOUT_KIND: composite z-score
MEASURED_VALUE: 1.08

For `NC(=O)NCC#Cc1ccc2c(c1)[C@]1(C(=O)N2)[C@H](C(=O)O)[C@H]2C(=O)O[C@H](c3ccccc3)[C@H](c3ccccc3)N2[C@@H]1c1ccccc1OCCO` on Neurogenic locus notch homolog protein 3 (Homo sapiens), measured composite z-score was 1.11

Noted composite z-score for `C=CC[C@]12N=C(c3ccc(OCCCO)cc3)O[C@H]1c1ccccc1N(C)C2=O` , tested on Neurogenic locus notch homolog protein 3 (Homo sapiens): 0.725
